# System: MDA-MB-415 (Breast Carcinoma);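 note: after 72 h of two-drug dosing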
# assay.notes: Bliss excess, mean over the matrix (fraction); higher = more synergy
The class of a record is decided solely by its measured Bliss excess; consult lower (below -0.04), middle (-0.04 to below 0.03), upper (0.03 or more)

Known results for compounds:
Cc1c2c(nn1C)CSCc1cc(n(C)n1)CSc1cc(c3ccccc3c1)OCCCc1c(C(=O)O)n(C)c3c-2c(Cl)ccc13 [AZD5991] + CCN(CCO)CCCOc1ccc2c(Nc3cc(CC(=O)Nc4cccc(F)c4)[nH]n3)ncnc2c1 [AZD2811] (first compound max 1 µM, 7x7, partner max 1 µM) = lower
CCN(CCO)CCCOc1ccc2c(Nc3cc(CC(=O)Nc4cccc(F)c4)[nH]n3)ncnc2c1 [AZD2811] + C[C@@H]1COCCN1C2=NC(=NC(=C2)C3(CC3)[S@](=N)(=O)C)C4=C5C=CNC5=NC=C4 [AZD6738] (first compound max 1 µM, 7x7, partner max 10 µM) = lower
Cc1cc2ncnn2cc1Nc1ncc2c(n1)n(C1CCOCC1)c(=O)n2C [AZD7648] + O=C(c1cc(Cc2n[nH]c(=O)c3ccccc23)ccc1F)N1CCN(C(=O)C2CC2)CC1 [Olaparib] (first compound max 10 µM, 7x7, partner max 10 µM) = middle
CN(CCO)CC[C@H](CSc1ccccc1)Nc1ccc(S(=O)(=O)NC(=O)c2ccc(N3CCC([C@@H](O)c4ccccc4-c4ccc(Cl)cc4)CC3)cc2)cc1S(=O)(=O)C(F)(F)F [AZD4320] + Cc1cc2ncnn2cc1Nc1ncc2c(n1)n(C1CCOCC1)c(=O)n2C [AZD7648] (first compound max 1 µM, 7x7, partner max 10 µM) = middle
N#Cc1cnc(Nc2cc(NC[C@H]3CNCCO3)c(C(F)(F)F)cn2)cn1 [SRA737] + O=c1[nH]cc(F)c(=O)[nH]1 [5-Fluorouracil] (first compound max 10 µM, 7x7, partner max 20 µM) = upper
NC1(C(=O)N[C@@H](CCO)c2ccc(Cl)cc2)CCN(c2ncnc3[nH]ccc23)CC1 [Capivasertib] + CC(C)n1c(=O)n(C)c2cnc3cc(F)c(-c4ccc(OCCCN5CCCCC5)nc4)cc3c21 [AZD1390] (first compound max 10 µM, 7x7, partner max 0.3 µM) = middle
C=CCn1c(=O)c2cnc(Nc3ccc(N4CCN(C)CC4)cc3)nc2n1-c1cccc(C(C)(C)O)n1 [AZD1775] + O=C(c1cc(Cc2n[nH]c(=O)c3ccccc23)ccc1F)N1CCN(C(=O)C2CC2)CC1 [Olaparib] (first compound max 1 µM, partner max 10 µM) = lower
CC(=O)c1c(C)c2cnc(Nc3ccc(N4CCNCC4)cn3)nc2n(C2CCCC2)c1=O [Palbociclib] + Cn1cnc2c(F)c(Nc3ccc(Br)cc3Cl)c(C(=O)NOCCO)cc21 [Selumetinib] (first compound max 10 µM, 7x7, partner max 10 µM) = lower

Class (by measured Bliss excess) for Cc1cc2ncnn2cc1Nc1ncc2c(n1)n(C1CCOCC1)c(=O)n2C [AZD7648] + C[C@@H]1COCCN1C2=NC(=NC(=C2)C3(CC3)[S@](=N)(=O)C)C4=C5C=CNC5=NC=C4 [AZD6738] (first compound max 10 µM, 7x7, partner max 10 µM)
upper

Class (by measured Bliss excess) for Cc1c2c(nn1C)CSCc1cc(n(C)n1)CSc1cc(c3ccccc3c1)OCCCc1c(C(=O)O)n(C)c3c-2c(Cl)ccc13 [AZD5991] + C[C@@H]1COCCN1C2=NC(=NC(=C2)C3(CC3)[S@](=N)(=O)C)C4=C5C=CNC5=NC=C4 [AZD6738] (first compound max 1 µM, 7x7, partner max 10 µM)
upper

Class (by measured Bliss excess) for Cc1c2c(nn1C)CSCc1cc(n(C)n1)CSc1cc(c3ccccc3c1)OCCCc1c(C(=O)O)n(C)c3c-2c(Cl)ccc13 [AZD5991] + C[C@@H](Nc1cc(F)cc(F)c1)c1cc(C(=O)N(C)C)cc2c(=O)cc(N3CCOCC3)oc12 [AZD8186] (first compound max 1 µM, 7x7, partner max 3 µM)
upper

Class (by measured Bliss excess) for CN(CCO)CC[C@H](CSc1ccccc1)Nc1ccc(S(=O)(=O)NC(=O)c2ccc(N3CCC([C@@H](O)c4ccccc4-c4ccc(Cl)cc4)CC3)cc2)cc1S(=O)(=O)C(F)(F)F [AZD4320] + Nc1ccn([C@@H]2O[C@H](CO)[C@@H](O)C2(F)F)c(=O)n1 [Gemcitabine] (first compound max 1 µM, 7x7, partner max 0.3 µM)
upper
